system: human 17β-HSD2 (Homo sapiens)
Construct: 17β-HSD2 was obtained from the microsomal fraction; from tissue; host or cells: human placenta, microsomal fraction
Sequence (P37059 whole entry): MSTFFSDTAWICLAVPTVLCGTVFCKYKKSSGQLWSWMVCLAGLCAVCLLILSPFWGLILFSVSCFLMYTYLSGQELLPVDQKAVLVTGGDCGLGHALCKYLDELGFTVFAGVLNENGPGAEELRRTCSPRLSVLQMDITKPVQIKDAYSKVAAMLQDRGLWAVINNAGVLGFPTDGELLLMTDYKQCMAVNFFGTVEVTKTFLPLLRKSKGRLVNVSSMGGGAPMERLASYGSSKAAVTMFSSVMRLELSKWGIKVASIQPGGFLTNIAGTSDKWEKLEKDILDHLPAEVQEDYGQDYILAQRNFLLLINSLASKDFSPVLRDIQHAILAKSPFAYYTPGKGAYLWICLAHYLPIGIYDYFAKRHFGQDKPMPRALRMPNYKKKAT
assay.name: 17β-HSD2 cell free assay (placental microsomal enzyme, [3H]E2 to E1, HPLC radiodetection)
Format: biochemical
settings: ratio of cell free IC50 values
Quick reference for SF, selectivity factor = IC50(17β-HSD2)/IC50(17β-HSD1) among some molecules
quantity.measured: SF, selectivity factor = IC50(17β-HSD2)/IC50(17β-HSD1)

{"chemical.string": "O=C(Nc1cccc(O)c1)c1nc2ccc(O)cc2s1", "data.value": 3}
{"chemical.string": "O=C(c1cccc(O)c1)c1nc2ccccc2s1", "data.value": 4}
{"chemical.string": "O=C(c1ccc(O)cc1)c1nc2ccc(O)cc2s1", "data.value": 10}
{"chemical.string": "O=C(c1cccc(O)c1)c1nc2ccc(O)cc2s1", "data.value": 24}
